Attribution: paper PMC6598542

Biological target: hCA IV (Homo sapiens)
Construct: gene CA4
Sequence (P22748 19-284): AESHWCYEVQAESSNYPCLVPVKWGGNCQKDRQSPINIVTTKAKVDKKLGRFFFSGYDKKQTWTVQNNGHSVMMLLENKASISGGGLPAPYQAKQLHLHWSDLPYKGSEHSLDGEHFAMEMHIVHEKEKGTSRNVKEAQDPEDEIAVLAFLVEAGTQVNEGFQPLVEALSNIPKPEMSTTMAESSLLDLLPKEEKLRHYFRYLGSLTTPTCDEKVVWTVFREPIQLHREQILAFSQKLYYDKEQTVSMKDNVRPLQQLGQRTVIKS
Assay: biochemical
Design: Stopped-flow CO2 hydration assay, phenol red at 557 nm, 10 min preincubation, recombinant hCA; Ki via Cheng-Prusoff
pKi: −log10 of the molar value.
property.label: pKi

Below: 5 compounds and their reported pKi.
                                   compound  property_label  readout_value
0  NS(=O)(=O)c1cccc(C(=O)NCc2cn(-c3cccc(F)c3)nn2)c1             pKi           5.05
1              COc1ccc(C(=O)O)cc1S(N)(=O)=O             pKi           5.06
2  COc1ccc(C(=O)NCc2cn(-c3ccc(F)cc3)nn2)cc1S(N)(=O)=O             pKi           5.27
3  C#CCNC(=O)c1cccc(S(N)(=O)=O)c1 [4a, N-(prop-2-yn-1-yl)-3-sulfamoylbenzamide]             pKi           5.07
4  COc1ccc(C(=O)NCc2cn(-c3ccc(C)cc3C)nn2)cc1S(N)(=O)=O             pKi           5.03

A: N#Cc1cccc(-n2cc(CNC(=O)c3cccc(S(N)(=O)=O)c3)nn2)c1
B: NS(=O)(=O)c1cc(C(=O)O)ccc1Cl
Task item: Between the two listed entries A and B , which has its pKi at the higher number? Reply briefly: the label of your chosen item.
Reply: B
